Measurement conditions: pH 2.7
Each record here notes measured logp [a].

{"columns": ["Compound", "Recorded value"],
 "data": [
  ["Cc1ccc(C)c(NC(=O)N2CCC(c3nc(C4=NOC(c5c(Cl)cccc5OS(C)(=O)=O)C4)cs3)CC2)c1 (racemic) [I-52]", "3.35[a],"],
  ["N#CCOc1ccccc1C1CC(c2csc(C3CCN(C(=O)Cn4nc(C(F)F)cc4C(F)F)CC3)n2)=NO1 (stereo not shown) [I-63]", "3[a],"],
  ["C#CCOCc1cccc(F)c1C1CC(c2csc(C3CCN(C(=O)Cn4nc(C(F)F)cc4C(F)F)CC3)n2)=NO1 (stereo not shown) [I-68]", "3.3[a]"]
]}

Shifting focus to the compound that follows.
Look up logp [a] of O=CNc1ccccc1C1CC(c2csc(C3CCN(C(=O)Cn4nc(C(F)F)cc4C(F)F)CC3)n2)=NO1 (stereo not shown) [I-108] and report it.
2.42[a],

====

Tested on: Phytophthora infestans
Format: in vivo
Measurement conditions: tomato plants, protective spray, active ingredient concentration 100 ppm, evaluation 7 days after inoculation; 0% = control, 100% = no infection
# maps each entry to its Eff. %
Respond numerically; units are % and should not be typed.

The following compounds have reported results that may help.
{"columns": ["Compound", "Eff. %, %"],
 "data": [
  ["CCON=Cc1ccccc1C1CC(c2csc(C3CCN(C(=O)Cn4nc(C(F)(F)F)cc4C)CC3)n2)=NO1 (mixture of isomers)", 100],
  ["Cc1cc(C(F)F)nn1CC(=O)N1CCC(c2nc(C3=NOC(C)(c4ccccc4OS(C)(=O)=O)C3)cs2)CC1 (racemic)", 94],
  ["COCC[S+]([O-])Cc1ccccc1C1CC(c2csc(C3CCN(C(=O)Cn4nc(C(F)F)cc4C(F)F)CC3)n2)=NO1 (mixture of isomers)", 94],
  ["O=C(Cn1nc(C(F)F)cc1C(F)F)N1CCC(c2nc(C3=NOC(c4cccc(OS(=O)(=O)C5CC5)c4)C3)cs2)CC1 (stereo not shown)", 98],
  ["O=CNc1ccccc1C1CC(c2csc(C3CCN(C(=O)Nc4cc(C(F)F)ccc4C(F)F)CC3)n2)=NO1 (stereo not shown)", 97],
  ["O=C(Oc1ccccc1C1CC(c2csc(C3CCN(C(=O)Cn4nc(C(F)F)cc4C(F)F)CC3)n2)=NO1)c1ccccc1 (stereo not shown)", 100],
  ["C/C=C/C(=O)Oc1ccccc1C1CC(c2csc(C3CCN(C(=O)Cn4nc(C(F)F)cc4C(F)F)CC3)n2)=NO1 (stereo not shown)", 70],
  ["N#CCN(C=O)c1ccccc1C1CC(c2csc(C3CCN(C(=O)Cn4nc(C(F)F)cc4C(F)F)CC3)n2)=NO1 (stereo not shown)", 100],
  ["Cc1cc(C(F)(F)F)nn1CC(=O)N1CCC(c2nc(C3=NOC(c4cccc(C=NOC(C)C)c4)C3)cs2)CC1 (mixture of isomers)", 100],
  ["Cc1ccc(Cl)cc1NC(=O)N1CCC(c2nc(C3=NOC(c4ccccc4C=NO)C3)cs2)CC1 (mixture of isomers)", 100]
]}

Here is the next item to consider.
Determine reported Eff. % for CCS(=O)(=O)Oc1ccc(C2CC(c3csc(C4CCN(C(=O)Cn5nc(C(F)(F)F)cc5C)CC4)n3)=NO2)cc1 (stereo not shown) ; test system: Phytophthora infestans.
95
